# Measurement target: PTH-1 receptor endogenously expressed in SaOS-2 cells (Homo sapiens, UniProt Q03431)
# Construct: endogenously expressed relatively low levels of the PTH-1 receptor; endogenous in cells; host or cells: SaOS-2 (SaOS-2-B10) human osteosarcoma cells
# Sequence (Q03431 27-593): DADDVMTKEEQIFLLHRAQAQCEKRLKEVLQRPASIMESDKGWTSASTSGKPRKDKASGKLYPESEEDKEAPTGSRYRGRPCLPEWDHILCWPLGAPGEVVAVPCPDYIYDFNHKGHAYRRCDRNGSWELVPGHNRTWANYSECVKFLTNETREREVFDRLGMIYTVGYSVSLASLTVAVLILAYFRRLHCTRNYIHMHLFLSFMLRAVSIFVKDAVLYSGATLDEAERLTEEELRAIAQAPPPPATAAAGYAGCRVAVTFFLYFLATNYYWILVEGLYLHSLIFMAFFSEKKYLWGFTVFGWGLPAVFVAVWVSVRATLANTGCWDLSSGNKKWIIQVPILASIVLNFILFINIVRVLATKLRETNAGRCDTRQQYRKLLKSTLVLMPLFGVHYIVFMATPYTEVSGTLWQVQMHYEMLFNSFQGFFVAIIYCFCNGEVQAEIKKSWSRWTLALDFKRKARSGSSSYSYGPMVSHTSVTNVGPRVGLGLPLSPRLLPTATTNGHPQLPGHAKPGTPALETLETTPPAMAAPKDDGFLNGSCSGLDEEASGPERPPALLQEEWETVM
# Experiment notes: cAMP stimulation in SaOS-2 cells
# Assay type: cell-based
# Condition notes: cAMP, basal 6.4 ± 0.8
Square brackets hold non-standard residues; d marks the D form. Peptide text beside a SMILES is read from it. hArg = N=C(N)NCCCC[C@H](N)C(=O)O; Aib = CC(C)(N)C(=O)O
Measured EMAX(obs.) values are reported for all entries that follow.
Report the figure in pmole/well without appending any unit label.

Illustrative cases are given below, each with its answer.
Compound: CC[C@H](C)[C@H](NC(=O)[C@H](CCC(=O)O)NC(=O)[C@H](C)NC(=O)[C@@H](NC(=O)[C@H](C)N)C(C)C)C(=O)N[C@@H](CCC(N)=O)C(=O)N[C@@H](CC(C)C)C(=O)N[C@@H](CCSC)C(=O)N[C@@H](Cc1c[nH]cn1)C(=O)N[C@@H](CCC(N)=O)C(=O)N[C@@H](CCCCNC(=N)N)C(=O)N[C@@H](C)C(=O)N[C@@H](CCCCN)C(=O)N[C@@H](Cc1c[nH]c2ccccc12)C(N)=O [[M]PTH(1-14), reference compound] (H-AVAEIQLMHQ[hArg]AKW-NH2)
EMAX(obs.), pmole/well: 340

Compound: CC[C@H](C)[C@H](NC(=O)[C@H](CCC(=O)O)NC(=O)[C@H](C)NC(=O)[C@@H](NC(=O)C(C)(C)N)C(C)C)C(=O)N[C@@H](CCC(N)=O)C(=O)N[C@@H](CC(C)C)C(=O)N[C@@H](CCSC)C(=O)N[C@@H](Cc1c[nH]cn1)C(=O)N[C@@H](CCC(N)=O)C(=O)N[C@@H](CCCCNC(=N)N)C(=O)N[C@@H](C)C(=O)N[C@@H](CCCCN)C(=O)N[C@@H](Cc1c[nH]c2ccccc12)C(N)=O [Aib-1] (H-[Aib]VAEIQLMHQ[hArg]AKW-NH2)
EMAX(obs.), pmole/well: 340

Compound: CC[C@H](C)[C@H](NC(=O)[C@H](CCC(=O)O)NC(=O)C(C)(C)NC(=O)[C@@H](NC(=O)[C@H](C)N)C(C)C)C(=O)N[C@@H](CCC(N)=O)C(=O)N[C@@H](CC(C)C)C(=O)N[C@@H](CCSC)C(=O)N[C@@H](Cc1c[nH]cn1)C(=O)N[C@@H](CCC(N)=O)C(=O)N[C@@H](CCCCNC(=N)N)C(=O)N[C@@H](C)C(=O)N[C@@H](CCCCN)C(=O)N[C@@H](Cc1c[nH]c2ccccc12)C(N)=O [Aib-3] (H-AV[Aib]EIQLMHQ[hArg]AKW-NH2)
EMAX(obs.), pmole/well: 330

Continue with the compound presented below.
The compound listed as CC[C@H](C)[C@H](NC(=O)[C@H](CCC(=O)O)NC(=O)C(C)(C)NC(=O)[C@@H](NC(=O)C(C)(C)N)C(C)C)C(=O)N[C@@H](CCC(N)=O)C(=O)N[C@@H](CC(C)C)C(=O)N[C@@H](CCSC)C(=O)N[C@@H](Cc1c[nH]cn1)C(=O)N[C@@H](CCC(N)=O)C(=O)N[C@@H](CCCCNC(=N)N)C(=O)N[C@@H](C)C(=O)N[C@@H](CCCCN)C(=O)N[C@@H](Cc1c[nH]c2ccccc12)C(N)=O [[Aib^1,3,M]PTH(1-14)] (H-[Aib]V[Aib]EIQLMHQ[hArg]AKW-NH2) has a reported EMAX(obs.) of 320
